# target.of.assay: myeloperoxidase (MPO) (Homo sapiens)
# Sequence (P05164 49-745): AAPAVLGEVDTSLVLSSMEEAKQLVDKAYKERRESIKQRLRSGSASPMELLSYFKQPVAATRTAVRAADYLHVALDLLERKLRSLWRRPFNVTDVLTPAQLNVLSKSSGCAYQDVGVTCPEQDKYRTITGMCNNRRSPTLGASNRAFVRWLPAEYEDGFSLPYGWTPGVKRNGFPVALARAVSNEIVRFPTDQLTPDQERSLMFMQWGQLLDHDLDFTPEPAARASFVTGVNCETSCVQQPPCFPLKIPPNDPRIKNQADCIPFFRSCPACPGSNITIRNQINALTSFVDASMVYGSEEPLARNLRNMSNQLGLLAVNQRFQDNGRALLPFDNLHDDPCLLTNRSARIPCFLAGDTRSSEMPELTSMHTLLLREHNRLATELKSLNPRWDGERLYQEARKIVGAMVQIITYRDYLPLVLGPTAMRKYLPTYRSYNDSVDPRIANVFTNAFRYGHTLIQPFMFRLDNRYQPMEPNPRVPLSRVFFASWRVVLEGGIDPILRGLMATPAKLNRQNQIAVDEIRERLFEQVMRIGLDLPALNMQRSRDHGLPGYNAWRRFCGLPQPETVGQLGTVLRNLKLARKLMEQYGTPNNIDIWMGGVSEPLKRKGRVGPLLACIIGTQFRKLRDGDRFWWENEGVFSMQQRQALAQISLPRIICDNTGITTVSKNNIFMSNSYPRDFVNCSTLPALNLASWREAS
# assay.overview: MPO peroxidation assay (Amplex Red assay)
# Type: biochemical
# condition.summary: Amplex Red Assay IC50 value, MPO peroxidation, 100 mM KPi pH 7.4, ten minute preincubation
assay.readout: pIC50
FYI, pIC50 means -log10 of a concentration in mol per litre.

Input line: Please give the measured pIC50 for this molecule: Nc1cc(OCc2nn(-c3ccccc3)nc2C(F)F)c2nn[nH]c2n1 [Example 55]
Output line: 8.00

Input line: Requested field: pIC50. Item: Nc1cc(OCc2cc(-c3ccccc3)no2)c2nn[nH]c2n1 [Example 14]
Output line: 6.92
